system.tested: Carboanhydrase IX (Homo sapiens, UniProt Q16790 38-459)
experimental.details: cell-based or functional assay
Recorded MIAPaCa 2/CA9+ IC50 values for a group of binders are listed next.

>  <binder>
Example 301 (antibody, human IgG1, kappa, V domains shown, linker-toxophore on cysteine S) VH: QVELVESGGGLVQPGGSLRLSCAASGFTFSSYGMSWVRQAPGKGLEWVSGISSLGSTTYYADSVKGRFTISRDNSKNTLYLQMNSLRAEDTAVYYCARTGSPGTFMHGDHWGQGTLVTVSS VL: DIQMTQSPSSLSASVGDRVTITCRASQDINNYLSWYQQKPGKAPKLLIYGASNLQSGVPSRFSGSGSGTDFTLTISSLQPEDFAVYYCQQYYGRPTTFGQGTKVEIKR

>  <MIAPaCa 2/CA9+ IC50 (nM)>
22

$$$$
>  <binder>
Example 313 (antibody, human IgG1, kappa, V domains shown, linker-toxophore on cysteine S) VH: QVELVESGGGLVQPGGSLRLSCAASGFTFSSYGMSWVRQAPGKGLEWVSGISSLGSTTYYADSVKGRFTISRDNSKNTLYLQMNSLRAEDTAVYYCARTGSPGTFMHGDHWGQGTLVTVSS VL: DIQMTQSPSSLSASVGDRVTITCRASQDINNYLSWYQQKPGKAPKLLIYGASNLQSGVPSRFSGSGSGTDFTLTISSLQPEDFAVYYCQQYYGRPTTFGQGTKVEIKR

>  <MIAPaCa 2/CA9+ IC50 (nM)>
3.8

$$$$
